target: Proto-oncogene tyrosine-protein kinase Src (Homo sapiens) (UniProt P12931); test: Percent inhibition determined against human recombinant p60 c-Src tyrosine kinase at 100 uM
Sequence (P12931 2-536 limits assumed): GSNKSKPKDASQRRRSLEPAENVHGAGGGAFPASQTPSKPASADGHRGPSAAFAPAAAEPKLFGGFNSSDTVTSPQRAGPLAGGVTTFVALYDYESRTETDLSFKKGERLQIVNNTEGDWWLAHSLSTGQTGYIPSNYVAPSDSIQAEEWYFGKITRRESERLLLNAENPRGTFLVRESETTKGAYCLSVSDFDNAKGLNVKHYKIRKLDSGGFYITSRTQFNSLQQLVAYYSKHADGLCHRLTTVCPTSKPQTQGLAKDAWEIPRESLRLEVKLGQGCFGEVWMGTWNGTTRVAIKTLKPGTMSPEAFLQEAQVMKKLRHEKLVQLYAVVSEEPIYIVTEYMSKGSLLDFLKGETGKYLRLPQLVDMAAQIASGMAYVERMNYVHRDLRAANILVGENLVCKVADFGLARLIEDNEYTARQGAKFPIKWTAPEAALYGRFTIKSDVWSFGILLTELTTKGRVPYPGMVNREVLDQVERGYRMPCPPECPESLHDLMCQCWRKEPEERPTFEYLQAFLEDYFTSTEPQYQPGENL
experimental.readout: inhibition (%)
Record the value in %, omitting the unit from your answer.

# count of solved cases: 2
COc1ccccc1CNC(=O)c1cc2cc(O)ccc2[nH]1 | 21
COc1ccccc1NC(=O)c1cc2cc(O)ccc2[nH]1 | 3

input: Param item = O=C(Nc1cccc(O)c1)c1cc2cc(O)ccc2[nH]1 ; retrieve measured inhibition.
output: 30

input: Param item = O=C(Nc1ccc(O)cc1)c1cc2cc(O)ccc2[nH]1 ; retrieve measured inhibition.
output: 45

input: Param item = C[C@H](NC(=O)c1cc2cc(O)ccc2[nH]1)c1cccc(O)c1 ; retrieve measured inhibition.
output: 13

input: Param item = O=C(NCc1ccc(O)cc1)c1cc2cc(O)ccc2[nH]1 ; retrieve measured inhibition.
output: 54

input: Param item = O=C(O)Cc1ccc(NC(=O)c2cc3cc(O)ccc3[nH]2)cc1 ; retrieve measured inhibition.
output: 7
